For each entry below, report its pIC50 value.
tested on: NCI-H526 cells; assay: In vitro cell inhibition assay - NCI-H526 cell proliferation (CellTiter-Glo); format: cell-based; settings: Homo sapiens, NCI-H526, 120 h, H526 small cell lung cancer cell proliferation, 5 days
Structures can show the parent of a compound that is named as a salt.
Numbers only, as −log10 of the molar value.

COc1cc(-c2cnc(N3CCC(NCc4cnc(/C=C/C(=O)NO)nc4)CC3)c(C#N)c2-c2ccc(C#N)c(F)c2)ccc1O = 6.97
N#Cc1ccc(-c2c(-c3ccc(OC(F)(F)F)c(O)c3)cnc(N3CCC(NCc4ccc(/C=C/C(=O)NO)cc4)CC3)c2C#N)cc1F = 7.47
COc1ccc(-c2cnc(N3CCC(NCc4ccc(/C=C(\F)C(=O)NO)cc4)CC3)c(C#N)c2-c2ccc(C#N)c(F)c2)cc1O [Example 171, formate] = 7.91
COc1cc(F)c(-c2cnc(N3CCC(NCc4ccc(/C=C/C(=O)NO)cc4)CC3)c(C#N)c2-c2ccc(C#N)nc2)cc1O [Example 255, formate] = 7.96
COc1ccc(-c2cnc(N3CCC(NCc4ccc5cc(C(=O)NO)sc5c4)CC3)c(C#N)c2-c2ccc(C#N)c(F)c2)cc1O = 6.55
COc1ccc(-c2cnc(N3CCC(NCc4cnc(/C=C/C(=O)NO)nc4)CC3)c(C#N)c2-c2ccc(C#N)c(F)c2)cc1O [Example 106, formate] = 8.15

Each compound below has a recorded value; state its pIC50.
1. COc1ccc(-c2cnc(N3CCC(NCc4ccc(/C=C/C(=O)NO)cn4)CC3)c(C#N)c2-c2ccc(C#N)c(F)c2)cc1O
2. N#Cc1ccc(-c2c(-c3ccc(Cl)c(O)c3)cnc(N3CCC(NCc4ccc(/C=C/C(=O)NO)cc4)CC3)c2C#N)cn1
3. N#Cc1ccc(-c2c(-c3ccc(Cl)c(O)c3)cnc(N3CCC(NCc4ccc(/C=C/C(=O)NO)cc4F)CC3)c2C#N)cn1 [Example 241, formate]
4. N#Cc1ccc(-c2c(-c3ccc(N4CCOCC4)c(O)c3)cnc(N3CCC(NCc4ccc(/C=C/C(=O)NO)cc4)CC3)c2C#N)cn1 [Example 244, formate]
5. COc1ccc(-c2cnc(N3CCC(NCc4ccc(/C=C/C(=O)NO)cc4)CC3)cc2-c2ccc(C#N)c(F)c2)cc1O [Example 80, formate]

1. 7.77
2. 8.36
3. 7.95
4. 7.79
5. 7.53

Provide the reported pIC50 of each entry below, same order.
1. CC(C)(O)COc1ccc(-c2cnc(N3CCC(NCc4ccc(/C=C(\F)C(=O)NO)cc4)CC3)c(C#N)c2-c2ccc(C#N)c(F)c2)cc1O [Example 198, formate]
2. COc1ccc(-c2sc(C(=O)N3CCC(NCc4ccc(/C=C/C(=O)NO)cc4)CC3)cc2-c2ccc(C#N)c(F)c2)cc1O [Example 33, hydrochloride]

1: 7.67; 2: 6.33

====

target: UniProt:O60341
Counter-ions that a name gives are not always drawn.
# IC50 binned as bottom bin (below 0.7 nM), middle bin (0.7 nM to below 10 nM), top bin (10 nM or more)

COc1cc(-c2cnc(N3CCC(N(C)Cc4ccc(/C=C/C(=O)NO)cc4)CC3)c(C#N)c2-c2ccc(C#N)c(F)c2)ccc1O [Example 99, formate] = middle bin

Could you tell me which band Cc1c(N2CCC(NCc3ccc(/C=C/C(=O)NO)cc3)CC2)ncc(-c2ccc(OCC(C)(C)O)c(O)c2)c1-c1ccc(C#N)c(F)c1 [Example 207, hydrochloride] belongs to?
middle bin

Which of the defined bands does the recorded IC50 of COc1ccc(-c2cnc(N3CCC(NCCc4ccc(CC(=O)NO)cc4)CC3)c(C#N)c2-c2ccc(C#N)c(F)c2)cc1O [Example 120, formate] sit within?
bottom bin

Which class holds N#Cc1ccc(-c2c(-c3ccc4cn[nH]c4c3)cnc(N3CCC(NCc4ccc(/C=C/C(=O)NO)cc4)CC3)c2C#N)cc1F [Example 142, formate] ?
middle bin

Assign a category based on measured IC50 for N#Cc1ccc(-c2nc(N3CCC(N)CC3)n3ccnc3c2-c2ccc(OCCCCCCC(=O)NO)c(O)c2)cc1F [Example 21, hydrochloride] and give only the class name.
bottom bin

Lab note: which band did `Cn1cnc2cc(-c3cnc(N4CCC(NCc5ccc(/C=C/C(=O)NO)cc5)CC4)c(C#N)c3-c3ccc(C#N)c(F)c3)ccc21` land in?
top bin

Form field 'band' for COc1ccc(-c2c(OCCCCCCC(=O)NO)cc(N3CCC(N)CC3)nc2-c2ccc(C#N)c(F)c2)cc1F [Example 3, hydrochloride]
top bin

# classify by IC50 band: `COc1ccc(-c2cnc(N3CCC(NCc4ccc(/C=C/C(=O)NO)c(C#N)c4)CC3)c(C#N)c2-c2ccc(C#N)c(F)c2)cc1O`
bottom bin

Which IC50 band matches COc1ccc(-c2cnc(N3CCC(NCc4ccc(/C=C/C(=O)NO)cc4)CC3)c(C#N)c2-c2ccc(C(N)=O)nc2)cc1O [Example 259, formate] ?
top bin

Which category does the recorded IC50 put N#Cc1ccc(-c2c(-c3ccc(/C=C/C(=O)NO)cc3)cnc(N3CCC(N)CC3)c2C#N)cc1F [Example 63, diformate] in?
middle bin

Band for COc1ccc(-c2c(OC)cc(N3CCC(N)CC3)nc2-c2ccc(C#N)c(F)c2)cc1OCCNCc1ccc(/C=C/C(=O)NO)cc1 [Example 30, hydrochloride] ?
middle bin
